assay: yeast display, Sf9 membrane polyspecificity reagent, FACS + sequencing; frameworks hold sequencing errors
observation.type: polyreactivity (PSR sort gate)

INSERT INTO measurements (sequence_code, observation_type, recorded_result) VALUES
  ('QVQLVESGGGLVQAGGSLRLSCAASGSILAYNAMGWYRKAPGKERELVAAIRLSGGSTYYADSVKGRFTISRDNAKNTVYLQMNSLKPEDTAVYYCARRYYRYDTRKYNYWGQGTQVTVSS', 'polyreactivity (PSR sort gate)', 'high polyreactivity'),
  ('QDQLVESGGGLVQAGGSLRLSCAASGSTFPRYAMGWSRQAPGKERELVAAISSSGRTYYADSVKGRFTISRDNEKNTVYLQMNSLKPEDTAVYYCNAYPVFRSYDYWGQGTQVTVSS', 'polyreactivity (PSR sort gate)', 'high polyreactivity'),
  ('QVQLVESGGGLVQAGGSLRLSCAASGRTFQRYAMGWYRQAPGKERELVAAISFSGGSTYYADSVKGRFTISRDNAKNTVYLQMNSLKPEDTAVYYCAAYHARSGYDSWGQGTQVTVSS', 'polyreactivity (PSR sort gate)', 'high polyreactivity');

Each recorded value in this set is attributed to the nanobody polyreactivity screen of Harvey et al. (2022).
